# System: C. neoformans
# Type: cell-based, Cryptococcus neoformans
# condition set: 72 h
Where a SMILES comes first, the peptide text is derived from it. [ ]: non-standard residue; d: D form. Gly(N(CH2)2(3-indolyl)) = O=C(O)CNCCc1c[nH]c2ccccc12; N(2-thienylmethyl)Gly = O=C(O)CNCc1cccs1; N(tridecyl)Gly = CCCCCCCCCCCCCNCC(=O)O; N(4-F-Bzl)Gly = O=C(O)CNCc1ccc(F)cc1; Gly(N-2-aminoethyl) = NCCNCC(=O)O; NFurfurylGly = O=C(O)CNCc1ccco1; Nspe = C[C@H](NCC(=O)O)c1ccccc1; Nlys = NCCCCNCC(=O)O
quantity: C. neoformans MIC

compound="CCCCCCCCCCCCCNCC(=O)N(CC(=O)N(CCCCN)CC(=O)N(CCN)CC(=O)N(CC(N)=O)Cc1ccc(F)cc1)Cc1ccc(F)cc1 [Compound 17] (H-[N(tridecyl)Gly][N(4-F-Bzl)Gly][Nlys][Gly(N-2-aminoethyl)][N(4-F-Bzl)Gly]-NH2)" quantity="C. neoformans MIC" observed_result="1.56 to 3.13 µg/mL"
compound=CCCCCCCCCCCCCNCC(=O)N(CC(=O)N(CCCCN)CC(=O)N(CCN)CC(=O)N(CC(N)=O)c1ccc2c(c1)CCC2)c1ccc2c(c1)CCC2 quantity="C. neoformans MIC" observed_result="1.56 to 3.13 µg/mL"
compound="CCCCCCCCCCCCCNCC(=O)N(CC(=O)N(CCCCN)CC(=O)N(CCN)CC(=O)N(CC(N)=O)Cc1cccs1)Cc1cccs1 [Compound 25] (H-[N(tridecyl)Gly][N(2-thienylmethyl)Gly][Nlys][Gly(N-2-aminoethyl)][N(2-thienylmethyl)Gly]-NH2)" quantity="C. neoformans MIC" observed_result="1.56 to 3.13 µg/mL"
compound="CCCCCCCCCCCCCNCC(=O)N(CC(=O)N(CCCCN)CC(=O)N(CCN)CC(=O)N(CC(N)=O)[C@@H](C)c1ccccc1)[C@@H](C)c1ccccc1 [Compound 16] (H-[N(tridecyl)Gly][Nspe][Nlys][Gly(N-2-aminoethyl)][Nspe]-NH2)" quantity="C. neoformans MIC" observed_result="1.56 to 3.13 µg/mL"
compound="CCCCCCCCCCCCCNCC(=O)N(CC(=O)N(CCCCN)CC(=O)N(CCN)CC(=O)N(CC(N)=O)Cc1ccco1)Cc1ccco1 [Compound 24] (H-[N(tridecyl)Gly][NFurfurylGly][Nlys][Gly(N-2-aminoethyl)][NFurfurylGly]-NH2)" quantity="C. neoformans MIC" observed_result="3.13 to 6.25 µg/mL"

The compound listed as CCCCCCCCCCCCCNCC(=O)N(CCc1c[nH]c2ccccc12)CC(=O)N(CCCCN)CC(=O)N(CCN)CC(=O)N(CCc1c[nH]c2ccccc12)CC(N)=O [Compound 23] (H-[N(tridecyl)Gly][Gly(N(CH2)2(3-indolyl))][Nlys][Gly(N-2-aminoethyl)][Gly(N(CH2)2(3-indolyl))]-NH2) shows C. neoformans MIC equal to 1.56 to 3.13 µg/mL

// provenance: patent US20240352066A1
